target: WT/R232 STING protein (Homo sapiens, UniProt Q86WV6, H232R); test: Luciferase reporter assay in HEK293T-hSTING-Luciferase cells, WT/R232; conditions: 20 hr stimulation, read-out: R232 Activity (EC50 range)
Sequence (Q86WV6 whole entry H232R): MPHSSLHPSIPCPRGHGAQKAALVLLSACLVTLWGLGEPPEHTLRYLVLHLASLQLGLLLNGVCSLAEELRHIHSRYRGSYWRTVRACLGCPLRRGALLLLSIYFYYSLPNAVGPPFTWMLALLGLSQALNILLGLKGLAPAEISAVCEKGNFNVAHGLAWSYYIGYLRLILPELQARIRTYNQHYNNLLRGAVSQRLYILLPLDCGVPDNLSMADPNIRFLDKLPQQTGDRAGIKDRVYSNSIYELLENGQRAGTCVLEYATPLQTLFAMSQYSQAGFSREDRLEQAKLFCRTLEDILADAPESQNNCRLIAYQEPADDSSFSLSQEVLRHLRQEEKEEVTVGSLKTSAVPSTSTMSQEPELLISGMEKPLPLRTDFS
Below, each entry is listed alongside its reported EC50.

Observe how each entry below is paired with its result.
CC1(C)Sc2ccc(C(=O)NCc3ccco3)cc2N(Cc2ccccc2)C1=O [Example 132]    > 10 µM
Cc1cccc(CN2C(=O)CSc3ccc(C(=O)NCc4ccco4)cc32)c1C [Example 12]    1 to 10 µM
Cc1ccc(CNC(=O)c2cnc3c(c2)N(Cc2c(F)cccc2Cl)C(=O)C(C)S3)o1 (centres unmarked) [Example 195]    < 1 µM
O=C(NCc1ccco1)c1ccc2c(c1)N(Cc1nc3ccccc3s1)C(=O)CS2 [Example 6]    > 10 µM
O=C(NCc1ccco1)c1ccc2c(c1)N(Cc1cc(F)cc(F)c1)C(=O)CS2 [Example 87]    < 1 µM

Query: Check the records and state EC50 for O=C(NCC1CCCN(Cc2ccccc2)C1)c1ccc2c(c1)N(Cc1ccccc1F)C(=O)CS2 (centres unmarked) [Example 44]
Response: > 10 µM

Query: Tell me measured EC50 for CC(NC(=O)c1ccc2c(c1)N(Cc1ccccc1F)C(=O)CS2)C12C[C@H]3C[C@@H](C1)C[C@@H](C2)C3 (some centres unmarked) [Example 23] please.
Response: > 10 µM

Query: Name the recorded EC50 of the compound listed here: O=C(CN1C(=O)CSc2ccc(C(=O)NCc3ccco3)cc21)Nc1ccccc1 [Example 5]
Response: > 10 µM

###

target: hSTING(H232) (Homo sapiens); experiment: Luciferase reporter assay in HEK293T-hSTING-Luciferase cells, H232 polymorph; conditions: 20 hr stimulation, read-out: H232 activity (EC50 range)
Sequence (Q86WV6 whole entry): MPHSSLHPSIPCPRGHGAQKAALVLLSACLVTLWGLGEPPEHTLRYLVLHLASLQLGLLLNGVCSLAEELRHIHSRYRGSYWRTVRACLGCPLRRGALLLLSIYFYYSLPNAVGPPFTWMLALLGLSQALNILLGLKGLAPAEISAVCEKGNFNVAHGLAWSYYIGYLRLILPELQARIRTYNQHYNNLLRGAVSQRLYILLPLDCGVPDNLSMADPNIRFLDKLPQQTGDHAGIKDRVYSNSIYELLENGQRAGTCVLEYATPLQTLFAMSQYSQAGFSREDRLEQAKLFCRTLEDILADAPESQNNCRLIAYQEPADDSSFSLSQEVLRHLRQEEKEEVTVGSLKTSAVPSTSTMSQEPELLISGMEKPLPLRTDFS
propertyLabel: EC50

Recorded EC50, per entry:
O=C(NCc1c(F)cc(F)cc1F)c1cnc2c(c1)N(Cc1c(F)cccc1Cl)C(=O)CS2    > 10000 nM
CCCC1Sc2ccc(C(=O)NCc3c(F)cc(F)cc3F)cc2N(Cc2c(F)cccc2Cl)C1=O (stereo not shown)    1000 to 10000 nM
O=C(NCc1c(F)cc(F)cc1F)c1ccc2c(c1)N(C(=O)c1c(F)cccc1Cl)CCS2    > 10000 nM
O=C(NCc1ccco1)c1ccc2c(c1)N(Cc1c(F)cccc1Cl)C(=O)CS2    1000 to 10000 nM
Cc1ccc(CNC(=O)c2ccc3c(n2)N(Cc2cc(F)cc(F)c2)C(=O)C(C)S3)o1 (stereo not shown) [Example 203]    1000 to 10000 nM
CC1Sc2ccc(C(=O)NCc3c(F)cc(F)cc3F)cc2N(Cc2cc(F)cc(F)c2)C1=O (stereo not shown) [Example 145]    < 1000 nM
CC1Sc2ncc(C(=O)NCc3c(F)cc(F)cc3F)cc2N(Cc2c(F)cccc2Cl)C1=O (stereo not shown)    < 1000 nM
O=C(NCc1cc2ccccc2o1)c1ccc2c(n1)N(Cc1cc(F)cc(F)c1)C(=O)CC2    1000 to 10000 nM

Query: Using known records, supply EC50 for CC1(C)CC(=O)N(Cc2cc(F)cc(F)c2)c2cc(C(=O)NCc3c(F)cc(F)cc3F)ccc21
Response: < 1000 nM

###

biological target: hSTING(H232) (Homo sapiens); assay: Luciferase reporter assay in HEK293T-hSTING-Luciferase cells, H232 polymorph; conditions: 20 hr stimulation, read-out: H232 activity (EC50 range)
Each entry below carries its reported EC50.

Use the examples below as a reference point.
O=C(NCc1cc2ccccc2o1)c1cnc2c(c1)N(Cc1c(F)cccc1Cl)C(=O)CS2    1 to 10 µM
CC1Sc2ccc(C(=O)NCc3cc4ccccc4o3)cc2N(Cc2cc(F)cc(F)c2)C1=O (stereo not shown)    < 1 µM
O=C(NCc1ccco1)c1ccc2c(c1)N(Cc1ccc(F)cc1)C(=O)CS2    1 to 10 µM

Query: // Input: O=C(NCc1ccc(F)cc1F)c1ccc2c(n1)N(Cc1cc(F)cc(F)c1)C(=O)CC2 . Output its EC50 only.
Response: > 10 µM

###

target: hSTING(HAQ) (Homo sapiens, UniProt Q86WV6, G230A/H232R/R293Q/R71H); construct: host or cells: HEK293T; test: Luciferase reporter assay in HEK293T-hSTING-Luciferase cells, HAQ polymorph; assay type: cell-based; settings: 20 hr stimulation, read-out: HAQ activity (EC50 range)
Sequence (Q86WV6 whole entry R71H/G230A/H232R/R293Q): as the sequence (Q86WV6 whole entry H232R) above, with R71H, G230A, R293Q counted along it
pEC50: −log10 of the molar value.
propertyLabel: pEC50

Take a look at these entries with their results.
C[C@@H]1Oc2ccc(C(=O)NCc3c(F)cc(F)cc3F)cc2N(Cc2cc(F)cc(F)c2)C1=O [Example 243]    > 6.00
CC1(CO)Sc2ccc(C(=O)NCc3ccc(F)cc3F)cc2N(Cc2c(F)cccc2Cl)C1=O (stereo not shown) [Example 151]    5.00 to 6.00
CC1Sc2ccc(C(=O)NCc3c(F)cc(F)cc3F)cc2N(Cc2ccncc2)C1=O (stereo not shown) [Example 157]    5.00 to 6.00

Query: Tell me measured pEC50 for CC1(C)Sc2ccc(C(=O)NCc3c(F)cc(F)cc3F)cc2N(Cc2ccccc2F)C1=O [Example 218] please.
Response: 5.00 to 6.00

###

Known EC50 of a selection of compounds
target: WT/R232 STING protein (Homo sapiens, UniProt Q86WV6, H232R); assay: Luciferase reporter assay in HEK293T-hSTING-Luciferase cells, WT/R232; settings: 20 hr stimulation, read-out: R232 Activity (EC50 range)
Structures can show the parent of a compound that is named as a salt.

O=C(NCc1ccoc1)c1ccc2c(c1)N(Cc1ccccc1)C(=O)CS2 [Example 50]    > 10 µM
O=C(NCc1ccco1)c1ccc2c(c1)N(Cc1cccc(F)c1F)C(=O)CS2 [Example 82]    1 to 10 µM
O=C(NC(c1ccccc1)c1ccccc1)c1ccc2c(c1)N(Cc1ccccc1F)C(=O)CS2 [Example 42]    > 10 µM

Query: System WT/R232 STING protein (Homo sapiens, UniProt Q86WV6, H232R). Read-out EC50. Item NCc1cc(C(=O)NCc2c(F)cc(F)cc2F)cc2c1SCC(=O)N2Cc1ccc(F)cc1 [Example 224, hydrochloride] . Report value.
Response: > 10 µM

###

Quick reference: pEC50 of the listed items.
target: UniProtKB Q86WV6; experiment: Luciferase reporter assay in HEK293T-hSTING-Luciferase cells, H232 polymorph; conditions: 20 hr stimulation, read-out: H232 activity (EC50 range)
pEC50: −log10 of the molar value.

O=C(NCc1ccco1)c1ccc2c(c1)N(Cc1cccc(F)c1F)C(=O)CS2    5.00 to 6.00

# ---- query compound ----
Query: Complete the entry with pEC50 for O=C(NCc1ccco1)c1ccc2c(c1)N(Cc1cc(F)cc(F)c1)C(=O)CS2
Response: 5.00 to 6.00

###

target: UniProtKB Q86WV6; experiment: Luciferase reporter assay in HEK293T-hSTING-Luciferase cells, H232 polymorph; details: 20 hr stimulation, read-out: H232 activity (EC50 range)
pEC50: −log10 of the molar value.
Listed compounds paired with reported pEC50

# annotated cases, reported pEC50 shown
CC1Cc2ccc(C(=O)NCc3c(F)cc(F)cc3F)cc2N(Cc2c(F)cccc2Cl)C1=O (centres unmarked)    > 6.00
CC1Sc2ccc(C(=O)NCc3ccccc3)nc2N(Cc2cc(F)cc(F)c2)C1=O (centres unmarked)    5.00 to 6.00
O=C(NCc1ccco1)c1ccc2c(c1)N(Cc1c(Cl)cccc1Cl)C(=O)CS2    5.00 to 6.00
CC1Sc2ccc(C(=O)NCc3ccc(F)cc3F)nc2N(Cc2c(F)cccc2Cl)C1=O (centres unmarked)    < 5.00

Query: # return pEC50 of Cc1cccc(CNC(=O)c2ccc3c(c2)N(Cc2ccccc2F)C(=O)C(C)S3)c1 (centres unmarked) (system: UniProtKB Q86WV6)
Response: 5.00 to 6.00

Query: // fetch pEC50 for O=C(NCc1cc2ccccc2o1)c1ccc2c(n1)N(Cc1cc(F)cc(F)c1)C(=O)CS2 ; system: UniProtKB Q86WV6
Response: 5.00 to 6.00

Query: // output pEC50; input CC1Sc2ncc(C(=O)NCc3cc4ccccc4o3)cc2N(Cc2cc(F)cc(F)c2)C1=O (centres unmarked) [Example 193] ; system UniProtKB Q86WV6
Response: 5.00 to 6.00

Query: Determine reported pEC50 for O=C(NCc1cc2ccccc2o1)c1ccc2c(c1)N(Cc1c(F)cccc1Cl)C(=O)CS2 ; test system: UniProtKB Q86WV6.
Response: 5.00 to 6.00

###

target: WT/R232 STING protein (Homo sapiens, UniProt Q86WV6, H232R); assay: Luciferase reporter assay in HEK293T-hSTING-Luciferase cells, WT/R232; conditions: 20 hr stimulation, read-out: R232 Activity (EC50 range)
pEC50: −log10 of the molar value.
Reported pEC50 values for the following molecules.

CC1Sc2ncc(C(=O)NCc3c(F)cc(F)cc3F)cc2N(Cc2c(F)cccc2Cl)C1=O (stereo not drawn)    > 6.00
Cc1noc(CNC(=O)c2ccc3c(c2)N(Cc2cc(F)cc(F)c2)C(=O)C(C)S3)n1 (stereo not drawn)    5.00 to 6.00
O=C(NCc1ccccn1)c1ccc2c(c1)N(Cc1c(F)cccc1Cl)C(=O)CS2    < 5.00
CC1(C)CC(=O)N(Cc2cc(F)cc(F)c2)c2cc(C(=O)NCc3c(F)cc(F)cc3F)ccc21    > 6.00
Cc1cnc(CNC(=O)c2cnc3c(c2)N(Cc2cc(F)cc(F)c2)C(=O)C(C)S3)o1 (stereo not drawn)    < 5.00

API: the following record is the query input.
Query: Check the records and state pEC50 for Cc1cnc(CNC(=O)c2ccc3c(c2)N(Cc2ccccc2)C(=O)CS3)o1
Response: < 5.00
